# pKi listing for each entry below
Target: Adenosine deaminase (Bos taurus)
Sequence (P56658 whole entry): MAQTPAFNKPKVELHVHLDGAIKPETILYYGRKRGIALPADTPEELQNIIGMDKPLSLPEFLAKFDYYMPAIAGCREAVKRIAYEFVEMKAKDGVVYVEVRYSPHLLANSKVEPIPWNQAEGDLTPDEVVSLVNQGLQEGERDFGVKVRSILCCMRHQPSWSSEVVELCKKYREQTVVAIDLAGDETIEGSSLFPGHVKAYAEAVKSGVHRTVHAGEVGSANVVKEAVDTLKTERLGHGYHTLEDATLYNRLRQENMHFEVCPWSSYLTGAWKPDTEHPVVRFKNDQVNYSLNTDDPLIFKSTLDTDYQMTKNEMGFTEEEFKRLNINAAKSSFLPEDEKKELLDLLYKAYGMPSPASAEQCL
Assay: Inhibitory activity against adenosine deaminase
pKi: −log10 of the molar value.

>  <SMILES_DATA>
COC1=C(OC)/C(=C/COP(=O)(O)OC[C@H]2O[C@@H](n3cnc4c(N)ncnc43)[C@H](O)[C@@H]2OP(=O)(O)COCCn2cnc3ncnc(N)c32)OC1=O

>  <pKi>
< 3.10

$$$$

Q) Entry COC1=C(OC)/C(=C/COP(=O)(O)COCCn2cnc3c(N)ncnc32)OC1=O : reported pKi = ?
A) < 3.10

* * *

System: Human immunodeficiency virus 1
Assay: Inhibition of cytopathogenicity against human HIV-1(IIIB) in MT-4 cells
Assay type: functional, organism-based
Details: Human immunodeficiency virus 1, MT4
REPORTED_ENDPOINT: log10(IC50) (log10 of the value in µg/mL)
Recorded IC50 (log10, µg/mL)

>  <SMILES_DATA>
COC1=C(OC)/C(=C/COP(=O)(O)COCCn2cnc3c(N)ncnc32)OC1=O

>  <log10(IC50)>
0.15

$$$$
>  <SMILES_DATA>
COC1=C(OC)/C(=C/COP(=O)(O)OC[C@H]2O[C@@H](n3cnc4c(N)ncnc43)[C@H](O)[C@@H]2OP(=O)(O)COCCn2cnc3ncnc(N)c32)OC1=O

>  <log10(IC50)>
0.69

$$$$

// next item, log10(IC50) requested
Q) Give Human immunodeficiency virus 1 log10(IC50) for COC1=C(OC)/C(=C/COP(=O)(O)COCCn2cnc3c(O)nc(N)nc32)OC1=O
A) 0.78
